# Species: Rattus norvegicus
# assay explanation: Open TG-GATES - Regimen: Single
# Assay type: toxicity, organism-based, Sprague-Dawley
# Parameters: regimen Single, gender Male, age 6 weeks
# measurement conditions: in vivo, po, 300 mg/kg, 24 h, tissue Plasma, route gavage, dose level Middle
If the reported TC equals or exceeds 80 mg/dL, assign fulfilled. If not, assign not fulfilled.

compound | label class
CCc1cc(C(N)=S)ccn1 [ETHIONAMIDE] | not fulfilled
Clc1ccccc1CN1CCc2sccc2C1 | fulfilled
O=C(O)c1cn(C2CC2)c2cc(N3CCNCC3)c(F)cc2c1=O | fulfilled
O=C(O)c1cc(/N=N/c2ccc(S(=O)(=O)Nc3ccccn3)cc2)ccc1O | fulfilled
